Molecular target: P2Y purinoceptor 12 (Homo sapiens, UniProt Q9H244)
Sequence (Q9H244 whole entry): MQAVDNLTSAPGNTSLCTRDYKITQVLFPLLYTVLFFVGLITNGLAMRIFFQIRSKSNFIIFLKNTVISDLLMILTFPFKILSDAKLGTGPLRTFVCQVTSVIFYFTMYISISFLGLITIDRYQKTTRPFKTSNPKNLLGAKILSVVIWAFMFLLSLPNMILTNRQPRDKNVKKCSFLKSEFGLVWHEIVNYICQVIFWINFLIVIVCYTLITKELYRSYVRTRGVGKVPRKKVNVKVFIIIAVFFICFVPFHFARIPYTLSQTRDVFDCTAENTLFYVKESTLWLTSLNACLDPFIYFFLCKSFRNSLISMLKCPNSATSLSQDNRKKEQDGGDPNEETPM
Experiment: Displacement of [33P]ADP from human recombinant P2Y12 receptor expressed in CHO cells
Listing of entries alongside the reported pKi.
The quantity pKi is defined as the negative base-10 logarithm of the molar concentration.

> print(dat)
                               smiles.input  observed
1  CCCCOC(=O)N1CCN(C(=O)[C@H](CCC(=O)O)NC(=O)c2cc(OC3CCN(C(=O)COC)CC3)cc(-c3ccccc3)n2)CC1      8.62
2  CCCCCOC(=O)N1CCN(C(=O)[C@H](CCC(=O)O)NC(=O)c2cc(OC3CCN(S(=O)(=O)CC)CC3)cc(-c3ccccc3)n2)CC1      8.29
3  CCOC(=O)N1CCN(C(=O)[C@H](CCC(=O)O)NC(=O)c2cc(OCc3ccccc3)cc(-c3ccccc3)n2)CC1      7.55

query: Given the molecule "CCCCCOC(=O)N1CCN(C(=O)[C@H](CCC(=O)O)NC(=O)c2cc(OC3CCN(C(=O)OCC)CC3)cc(-c3ccccc3)n2)CC1" , write its reported pKi.
result: 8.19

----------
Molecular target: P2Y purinoceptor 12 (Homo sapiens, UniProt Q9H244)
Assay: Displacement of [33P]ADP from human recombinant P2Y12 receptor expressed in CHO cells
Quantity Measured: pKi
The quantity pKi is defined as the negative base-10 logarithm of the molar concentration.

Solved entries (count: 2):
> print(dat)
                               smiles.input                                    system  quantity.measured  observed
1  CCCOc1cc(C(=O)N[C@@H](CCC(=O)O)C(=O)N2CCN(C(=O)OCC)CC2)nc(-c2ccccc2)c1  P2Y purinoceptor 12 (Homo sapiens, UniProt Q9H244)                pKi      6.92
2  CCCCNC(=O)N1CCN(C(=O)[C@H](CCC(=O)O)NC(=O)c2cccc(-c3ccccc3)n2)CC1  P2Y purinoceptor 12 (Homo sapiens, UniProt Q9H244)                pKi      6.21

# evaluate next
query: Given the molecule "CCCCOC(=O)N1CCN(C(=O)[C@H](CCC(=O)O)NC(=O)c2cc(OC3CCN(C(C)C)CC3)cc(-c3ccccc3)n2)CC1" , write its reported pKi.
result: 8.00

----------
Assay: Half life in Sprague-Dawley rat at 2 mg/kg, iv and 5 mg/kg, po
Assay type: ADME, organism-based
Conditions: in vivo
Lab note: anything with half-life below 40 min is marked Condition met; values at 40 min or higher are marked Condition not met.

Worked cases, answers included:
> print(dat)
                               smiles.input       answer.label
1  CCCCCOC(=O)N1CCN(C(=O)[C@H](CCC(=O)O)NC(=O)c2cc(C(=O)N3CCOCC3)cc(-c3ccccc3)n2)CC1      Condition met
2  CCCCCOC(=O)N1CCN(C(=O)[C@H](CCC(=O)O)NC(=O)c2cc(OCC3CCN(C)CC3)cc(-c3ccccc3)n2)CC1      Condition met
3  CCCCCOC(=O)N1CCN(C(=O)[C@H](CCC(=O)O)NC(=O)c2cc(OC(=O)N(C)CC3CCOCC3)cc(-c3ccccc3)n2)CC1  Condition not met
4  CCCCCOC(=O)N1CCN(C(=O)[C@H](CCC(=O)O)NC(=O)c2cc(CCCN(CC)CC)cc(-c3ccccc3)n2)CC1  Condition not met
5  CCCCCCOC(=O)N1CCN(C(=O)[C@H](CCC(=O)O)NC(=O)c2cc(OC3CCNCC3)cc(-c3ccccc3)n2)CC1      Condition met
6  CCCCCOC(=O)N1CCN(C(=O)[C@H](CCC(=O)O)NC(=O)c2cc(OCCOC)cc(-c3ccccc3)n2)CC1      Condition met

query: In plain terms, does "CCCCCOC(=O)N1CCN(C(=O)[C@H](CCC(=O)O)NC(=O)c2cc(CCCN(C)C)cc(-c3ccccc3)n2)CC1" come in under 40 min for half-life?
result: Condition not met

query: In plain terms, does "CCCCCOC(=O)N1CCN(C(=O)[C@H](CCC(=O)O)NC(=O)c2cc(C(=O)N3CCC(OC)CC3)cc(-c3ccccc3)n2)CC1" come in under 40 min for half-life?
result: Condition met

query: In plain terms, does "CCCCCOC(=O)N1CCN(C(=O)[C@H](CCC(=O)O)NC(=O)c2cc(OC3CCN(C(C)=O)CC3)cc(-c3ccccc3)n2)CC1" come in under 40 min for half-life?
result: Condition met

query: In plain terms, does "CCCCCOC(=O)N1CCN(C(=O)[C@H](CCC(=O)O)NC(=O)c2cc(NCCO)cc(-c3ccccc3)n2)CC1" come in under 40 min for half-life?
result: Condition met

query: In plain terms, does "CCCCCOC(=O)N1CCN(C(=O)[C@H](CCC(=O)O)NC(=O)c2cc(OCC3CCN(CCOC)CC3)cc(-c3ccccc3)n2)CC1" come in under 40 min for half-life?
result: Condition not met

query: In plain terms, does "CCCCCOC(=O)N1CCN(C(=O)[C@H](CCC(=O)O)NC(=O)c2cc(N3CCC(N(C)C)CC3)cc(-c3ccccc3)n2)CC1" come in under 40 min for half-life?
result: Condition met

query: In plain terms, does "CCCCOc1cc(C(=O)N[C@@H](CCC(=O)O)C(=O)N2CCN(C(=O)OCC)CC2)nc(-c2ccccc2)c1" come in under 40 min for half-life?
result: Condition met

query: In plain terms, does "CCOC(=O)N1CCN(C(=O)[C@H](CCC(=O)O)NC(=O)c2cccc(-c3ccccc3)n2)CC1" come in under 40 min for half-life?
result: Condition not met

query: In plain terms, does "CCCCCOC(=O)N1CCN(C(=O)[C@H](CCC(=O)O)NC(=O)c2cc(OC(=O)N3CCCC3)cc(-c3ccccc3)n2)CC1" come in under 40 min for half-life?
result: Condition met
